Measurement record for UniProtKB P03951; quantity recorded: IC50.
Sequence (P03951 388-625 limits assumed): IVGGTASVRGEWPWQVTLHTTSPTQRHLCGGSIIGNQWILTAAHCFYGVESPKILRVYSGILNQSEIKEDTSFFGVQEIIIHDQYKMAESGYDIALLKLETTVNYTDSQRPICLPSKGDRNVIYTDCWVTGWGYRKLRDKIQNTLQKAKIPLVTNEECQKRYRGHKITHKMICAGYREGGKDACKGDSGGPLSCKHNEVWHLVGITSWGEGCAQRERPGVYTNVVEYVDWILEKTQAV
Sequence (P03951 19-387 partner limits assumed): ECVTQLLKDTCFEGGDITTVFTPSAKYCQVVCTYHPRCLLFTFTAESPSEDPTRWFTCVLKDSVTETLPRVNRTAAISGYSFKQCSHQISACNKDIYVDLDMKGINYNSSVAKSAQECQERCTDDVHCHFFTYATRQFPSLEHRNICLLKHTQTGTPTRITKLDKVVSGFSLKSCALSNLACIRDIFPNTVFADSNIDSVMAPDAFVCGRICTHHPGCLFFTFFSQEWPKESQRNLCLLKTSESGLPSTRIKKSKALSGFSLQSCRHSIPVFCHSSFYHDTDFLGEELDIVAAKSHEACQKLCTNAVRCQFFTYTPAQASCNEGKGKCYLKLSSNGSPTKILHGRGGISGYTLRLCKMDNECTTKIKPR
METRIC NAME: IC50 (nM)

(1) Nc1cc(C2C3COCC32)nn1CC(=O)N1CC[C@@]2(C1)OC(=O)Nc1ccc(Cl)c(F)c12 (some centres unmarked)
(2) Nc1cc(-c2ccc(F)cc2)nn1CC(=O)N1CCC[C@@]2(C1)OC(=O)Nc1ccc(Cl)c(F)c12
(3) Nc1c(Cl)c(-c2ncccn2)nn1CC(=O)N1CCC[C@@]2(C1)OC(=O)Nc1ccc(Cl)c(F)c12
(4) Nc1cc(C2CC2)nn1CC(=O)N1CC[C@@]2(C1)OC(=O)Nc1ccc(Cl)c(F)c12
(5) Nc1cc(-c2cc3ccccc3o2)nn1CC(=O)N1CC[C@@]2(C1)OC(=O)Nc1ccc(Cl)c(F)c12
Sort low-to-high on IC50, please. // respond by listing labels in the order requested
3, 4, 1, 5, 2
(3: 280 nM, 4: 506 nM, 1: 791 nM, 5: 1400 nM, 2: 2550 nM)

(P) Nc1cc(-c2cccs2)nn1CC(=O)N1CC[C@@]2(C1)OC(=O)Nc1ccc(Cl)c(F)c12
(Q) Nc1cc(-c2cncc(Br)c2)nn1CC(=O)N1CC[C@@]2(C1)OC(=O)Nc1ccc(Cl)c(F)c12
Param metric = IC50; output whichever of P , Q has the minimum value. Could you answer with the label of the item you picked?
P

(I) Nc1cc(-c2cccc(Cl)c2)nn1CC(=O)N1CCC[C@@]2(C1)OC(=O)Nc1ccc(Cl)c(F)c12
(II) Nc1c2c(nn1CC(=O)N1CC[C@@]3(C1)OC(=O)Nc1ccc(Cl)c(F)c13)CCC2
(III) Nc1cc(-c2cccc(F)c2)nn1CC(=O)N1CC[C@@]2(C1)OC(=O)Nc1ccc(Cl)c(F)c12
(IV) Nc1cc(-c2ncccc2F)nn1CC(=O)N1CCC[C@@]2(C1)OC(=O)Nc1ccc(Cl)c(F)c12
(V) COc1cccc(OC)c1-c1cc(N)n(CC(=O)N2CC[C@@]3(C2)OC(=O)Nc2ccc(Cl)c(F)c23)n1
Output the entries ranked by IC50 from maximum down to minimum. # answer = labels listed in requested order
I, V, IV, III, II

(I) Nc1cc(-c2c(F)cc(F)cc2F)nn1CC(=O)N1CC[C@@]2(C1)OC(=O)Nc1ccc(Cl)c(F)c12
(II) Nc1cc(-c2ccc(F)c(F)c2)nn1CC(=O)N1CC[C@@]2(C1)OC(=O)Nc1ccc(Cl)c(F)c12
In the pair I and II , the larger recorded IC50 belongs to which? Write the label of whichever entry you select.
II
